- System: T. vaginalis
- measurement protocol: Trichomonas resorufin assay
- Assay type: cell-based
- condition set: Trichomonas vaginalis, read-out: IC50 T. vaginalis
pIC50: −log10 of the molar value.
measure name: pIC50

compound	test system	measure name	observed value
CC(C)NC(=O)c1cc(NC(=O)c2cc(NC(=O)c3ccc(/C=C/c4cnc5ccccc5c4)cc3)cn2C)cn1C [IVa4]	T. vaginalis	pIC50	4.30 to 5.30
CC[N+](C)(C)CCNC(=O)c1cc(NC(=O)c2cc(NC(=O)c3ccc(/C=C/c4cnc5ccccc5c4)cc3)cn2C)cn1C [Ic1]	T. vaginalis	pIC50	> 6.00
[H]/N=C(\CCNC(=O)c1cc(NC(=O)c2cc(NC(=O)c3ccc(C=Cc4ccc5nonc5c4)cc3)cn2C)cn1C)NCCCN(C)C [Ia46]	T. vaginalis	pIC50	4.30 to 5.30
CCC[N+](C)(C)CCNC(=O)c1cc(NC(=O)c2cc(NC(=O)c3ccc(/C=C/c4cnc5ccccc5c4)cc3)cn2C)cn1C [Ic2]	T. vaginalis	pIC50	> 6.00
CC/N=C(\N)CCNC(=O)c1cc(NC(=O)c2cc(NC(=O)c3ccc(/C=C/c4ccc5nonc5c4)cc3)cn2C)cn1C [Ia12]	T. vaginalis	pIC50	5.30 to 6.00
[H]/N=C(\CCNC(=O)c1cc(NC(=O)c2cc(NC(=O)c3ccc(C=Cc4ccc5nonc5c4)cc3)cn2C)cn1C)NCCC1CCOCC1 [Ia45]	T. vaginalis	pIC50	4.30 to 5.30

Would you kindly look at the next entry?
Looking up Cn1cc(NC(=O)c2cc(NC(=O)c3ccc(/C=C/c4cnc5ccccc5c4)cc3)cn2C)cc1C(=O)NCCC(=N)N1CCOCC1 [Ib5] , I found its pIC50 recorded as 5.30 to 6.00

====

- Tested on: Staphylococcus aureus (ATCC 43300)
- measurement protocol: Antibacterial MIC, broth microdilution (CLSI)
- Assay type: cell-based
- condition set: Staphylococcus aureus, ATCC43300; read-out: MIC80 S. aureus
measure name: MIC80

// worked examples, MIC80 included
compound	MIC80
CN(C)c1ccc(/C=C/c2ccc(C(=O)Nc3cc(C(=O)Nc4cc(C(=O)NCCC(=N)NCC(F)F)n(C)c4)n(C)c3)cn2)cc1 [Ia63]	< 5 µM
CCCCC[N+](C)(C)CCNC(=O)c1cc(NC(=O)c2cc(NC(=O)c3ccc(/C=C/c4cnc5ccccc5c4)cc3)cn2C)cn1C [Ic4]	< 5 µM
CCCCCCCCCCCC[N+](C)(C)CCNC(=O)c1cc(NC(=O)c2cc(NC(=O)c3ccc(/C=C/c4cnc5ccccc5c4)cc3)cn2C)cn1C [Ic11]	5 to 25 µM

# map each compound to its MIC80
1. Cn1cc(NC(=O)c2cc(NC(=O)c3ccc(/C=C/c4cnc5ccccc5c4)cc3)cn2C)cc1C(=O)NCCCCC(=N)N [II1]
2. CN(C)c1ccc(/C=C/c2ccc(C(=O)Nc3cc(C(=O)Nc4c[nH]c(C(=O)NCCC(=N)N)c4)n(C)c3)cn2)cc1 [IIIa7]
3. CC[N+](C)(C)CCNC(=O)c1cc(NC(=O)c2cc(NC(=O)c3ccc(/C=C/c4cnc5ccccc5c4)cc3)cn2C)cn1C [Ic1]
4. COCCOCCOCCNC(=O)c1cc(NC(=O)c2cc(NC(=O)c3ccc(/C=C/c4cnc5ccccc5c4)cc3)cn2C)cn1C [IVa8]

25 to 100 µM
< 5 µM
< 5 µM
5 to 25 µM

These measurements were taken from patent US20250313546A1.
